- ASSAYED SYSTEM: T1, NHERF3_1, Q5T2W1
- T1 sequence (Q5T2W1 4-100, limits assumed, looked up): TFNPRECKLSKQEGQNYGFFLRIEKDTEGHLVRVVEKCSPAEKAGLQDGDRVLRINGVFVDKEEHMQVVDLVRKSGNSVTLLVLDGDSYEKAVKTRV
- ASSAY NOTES: holdup assay
- Set-up: key: below the threshold = too weak to quantify, mostly under pKd 3.1 to 4
- TEST SETTINGS: plain residues with an end cap or a label only (N-terminal biotin on a linker: ado-ado)
MEASURED QUANTITY: pKd

1. SLNANEVEWF [RNF130, Q86XS8] : 3.89
2. KSRVAFFEEL [NF2, P35240;P35240-1] : 4.18
3. PYSESDDDWC [CACNA1A, O00555] : 3.95
4. RFQQRMQTHV [KIRREL1, Q96J84] : 5.03
5. GIKKITSTAL [RPS6KA3, P51812] : 5.64
6. PTPDLPQTRV [KLHDC7A, Q5VTJ3] : 4.36
7. SFISKKEWYV [NECTIN1, Q15223] : 4.28
8. KKMLQRRTLL [OR8G1, Q15617] : 4.94
9. NISYRRESAI [KCNJ4, P48050] : 3.75
10. QSYPSKHDYV [CLDN18, P56856] : 4.26
11. GEDRSPPTAL [MKNK1, Q9BUB5] : 3.71
12. TGLWKHETTV [ADGRA3, Q8IWK6] : 3.63
13. MQHQRTHTRV [ZSCAN30, Q86W11] : 4
14. LKDDELKTKL [SLCO1A2, P46721] : 4.87
15. QLSFNTDTLC [ABCA2, Q9BZC7] : 4.07
